System: primary cells from human dental pulp
test.details: Determination of the cytotoxicity (MTS assay)
Type: cell-based
run.conditions: 10 μg/mL, 72 h
Procedure: Tested cells: primary from dental pulp in complete high glucose DMEM medium+1 mg ascorbic acid, seeded in 96-well dishes; […] Procedure: Cells (6000/well) are seeded on a 96-well dish to form a monolayer at approximately 40% confluence. […] The absorbance values for each sample are averaged and the standard deviation calculated. The percent viability is calculated on the negative control. […]
Listed here: items and their measured % Viability 72 h.
// note: answer is a bare numeric in %

IN: Check the records and state % Viability 72 h for C=C(C)C(=O)OCC[N+](CC)(CC)CCCCCCCCCCCC[N+](CC)(CC)CCOC(=O)C(=C)C.[Br-].[Br-]
OUT: 69.7

IN: Check the records and state % Viability 72 h for C=C(C)C(=O)OCC[N+](C)(C)CCCCCCCCCCCC[N+](C)(C)CCOC(=O)C(=C)C.[Br-].[Br-]
OUT: 110.0

IN: Check the records and state % Viability 72 h for C=C(C)C(=O)NCc1cc[n+](CCCCCCCCCCCC[n+]2ccc(CNC(=O)C(=C)C)cc2)cc1.[Br-].[Br-]
OUT: 100.6

From here, focus on the item given below.
IN: Check the records and state % Viability 72 h for C=C(C)C(=O)Nc1ccc([N+](C)(C)CCCCCCCCCCCC[N+](C)(C)c2ccc(NC(=O)C(C)=O)cc2)cc1.[Br-].[Br-]
OUT: 97.7

====

Listed here: items and their measured MCB.
System: S. Aureus (ATCC 25923)
test.details: Determination of the minimum bactericidal concentration (MBC)
Format: cell-based
// note: answer is a bare numeric in mg/mL

IN: Check the records and state MCB for C=C(C)C(=O)NCCC[N+](C)(C)CCCCCCCCCCCC[N+](C)(C)CCCNC(=O)C(=C)C.[Br-].[Br-] [Example 3]
OUT: 1.25

IN: Check the records and state MCB for C=C(C)C(=O)OCC[N+](C)(C)CCCCCCCCCCCC[N+](C)(C)CCOC(=O)C(=C)C.[Br-].[Br-] [Example 1]
OUT: 0.156

---
IN: Check the records and state MCB for C=C(C)C(=O)OCC[N+](CC)(CC)CCCCCCCCCCCC[N+](CC)(CC)CCOC(=O)C(=C)C.[Br-].[Br-] [Example 5]
OUT: 0.039

IN: Check the records and state MCB for C=C(C)C(=O)Nc1ccc([N+](C)(C)CCCCCCCCCCCC[N+](C)(C)c2ccc(NC(=O)C(C)=O)cc2)cc1.[Br-].[Br-] [Example 6]
OUT: 0.01

IN: Check the records and state MCB for C=C(C)C(=O)NCc1cc[n+](CCCCCCCCCCCC[n+]2ccc(CNC(=O)C(=C)C)cc2)cc1.[Br-].[Br-] [Example 7]
OUT: 0.005

====

Test system: primary cells from human dental pulp
test.details: Determination of the cytotoxicity (MTS assay)
Assay type: cell-based
run.conditions: 100 μg/mL, 72 h
Listed here: items and their measured % Viability 72 h.
// note: answer is a bare numeric in %

IN: Check the records and state % Viability 72 h for C=C(C)C(=O)OCC[N+](CC)(CC)CCCCCCCCCCCC[N+](CC)(CC)CCOC(=O)C(=C)C.[Br-].[Br-]
OUT: 68.8

IN: Check the records and state % Viability 72 h for C=C(C)C(=O)NCc1cc[n+](CCCCCCCCCCCC[n+]2ccc(CNC(=O)C(=C)C)cc2)cc1.[Br-].[Br-]
OUT: 71.8

IN: Check the records and state % Viability 72 h for C=C(C)C(=O)OCC[N+](C)(C)CCCCCCCCCCCC[N+](C)(C)CCOC(=O)C(=C)C.[Br-].[Br-]
OUT: 122.4

From here, focus on the item given below.
IN: Check the records and state % Viability 72 h for C=C(C)C(=O)Nc1ccc([N+](C)(C)CCCCCCCCCCCC[N+](C)(C)c2ccc(NC(=O)C(C)=O)cc2)cc1.[Br-].[Br-]
OUT: 2.0

====

System: primary cells from human dental pulp
test.details: Determination of the cytotoxicity (MTS assay)
Type: cell-based
run.conditions: 10 μg/mL, 24 h
observed.property: % Viability 24 h (%)
// note: answer is a bare numeric in %

Field: example entries. Status: answers known.
IN: Check the records and state % Viability 24 h for C=C(C)C(=O)OCC[N+](CC)(CC)CCCCCCCCCCCC[N+](CC)(CC)CCOC(=O)C(=C)C.[Br-].[Br-]
OUT: 119.2

IN: Check the records and state % Viability 24 h for C=C(C)C(=O)Nc1ccc([N+](C)(C)CCCCCCCCCCCC[N+](C)(C)c2ccc(NC(=O)C(C)=O)cc2)cc1.[Br-].[Br-]
OUT: 99.5

IN: Check the records and state % Viability 24 h for C=C(C)C(=O)OCC[N+](C)(C)CCCCCCCCCCCC[N+](C)(C)CCOC(=O)C(=C)C.[Br-].[Br-]
OUT: 95.3

From here, focus on the item given below.
IN: Check the records and state % Viability 24 h for C=C(C)C(=O)NCc1cc[n+](CCCCCCCCCCCC[n+]2ccc(CNC(=O)C(=C)C)cc2)cc1.[Br-].[Br-]
OUT: 105.9

====

Listed here: items and their measured % Viability 24 h.
Test system: primary cells from human dental pulp
test.details: Determination of the cytotoxicity (MTS assay)
Type: cell-based
run.conditions: 500 μg/mL, 24 h
// note: answer is a bare numeric in %

Field: example entries. Status: answers known.
IN: Check the records and state % Viability 24 h for C=C(C)C(=O)OCC[N+](C)(C)CCCCCCCCCCCC[N+](C)(C)CCOC(=O)C(=C)C.[Br-].[Br-]
OUT: 86.6

IN: Check the records and state % Viability 24 h for C=C(C)C(=O)Nc1ccc([N+](C)(C)CCCCCCCCCCCC[N+](C)(C)c2ccc(NC(=O)C(C)=O)cc2)cc1.[Br-].[Br-]
OUT: 1.6

IN: Check the records and state % Viability 24 h for C=C(C)C(=O)NCc1cc[n+](CCCCCCCCCCCC[n+]2ccc(CNC(=O)C(=C)C)cc2)cc1.[Br-].[Br-]
OUT: 91.9

From here, focus on the item given below.
IN: Check the records and state % Viability 24 h for C=C(C)C(=O)OCC[N+](CC)(CC)CCCCCCCCCCCC[N+](CC)(CC)CCOC(=O)C(=C)C.[Br-].[Br-]
OUT: 2.5

====

Listed here: items and their measured zone of inhibition at 1 % strength.
Test system: bacteria grown on agar
test.details: Determination of bacterial inhibition - agar diffusion test of primer formulations
Assay type: cell-based
run.conditions: primer L1B, 1% by weight of compound
// note: answer is a bare numeric in mm

IN: Check the records and state zone of inhibition at 1 % strength for C=C(C)C(=O)OCC[N+](CC)(CC)CCCCCCCCCCCC[N+](CC)(CC)CCOC(=O)C(=C)C.[Br-].[Br-]
OUT: 14

IN: Check the records and state zone of inhibition at 1 % strength for C=C(C)C(=O)NCCC[N+](C)(C)CCCCCCCCCCCC[N+](C)(C)CCCNC(=O)C(=C)C.[Br-].[Br-]
OUT: 0

IN: Check the records and state zone of inhibition at 1 % strength for C=C(C)C(=O)NCc1cc[n+](CCCCCCCCCCCC[n+]2ccc(CNC(=O)C(=C)C)cc2)cc1.[Br-].[Br-]
OUT: 17

IN: Check the records and state zone of inhibition at 1 % strength for C=C(C)C(=O)Nc1ccc([N+](C)(C)CCCCCCCCCCCC[N+](C)(C)c2ccc(NC(=O)C(C)=O)cc2)cc1.[Br-].[Br-]
OUT: 14

---
IN: Check the records and state zone of inhibition at 1 % strength for C=C(C)C(=O)OCC[N+](C)(C)CCCCCCCCCCCC[N+](C)(C)CCOC(=O)C(=C)C.[Br-].[Br-]
OUT: 5

====

Test system: S. Sanguis (ATCC 10556)
MIC vs 300 µg/mL: less than gives Y; not less than gives N.

Below, 4 compounds whose answers are already recorded.
IN: Take the compound C=C(C)C(=O)OCC[N+](C)(C)CCCCCCCCCCCC[N+](C)(C)CCOC(=O)C(=C)C.[Br-].[Br-] and say whether its MIC is less than 300 µg/mL.
OUT: N

IN: Take the compound C=C(C)C(=O)Nc1ccc([N+](C)(C)CCCCCCCCCCCC[N+](C)(C)c2ccc(NC(=O)C(C)=O)cc2)cc1.[Br-].[Br-] and say whether its MIC is less than 300 µg/mL.
OUT: Y

IN: Take the compound C=C(C)C(=O)NCCC[N+](C)(C)CCCCCCCCCCCC[N+](C)(C)CCCNC(=O)C(=C)C.[Br-].[Br-] and say whether its MIC is less than 300 µg/mL.
OUT: N

IN: Take the compound C=C(C)C(=O)NCc1cc[n+](CCCCCCCCCCCC[n+]2ccc(CNC(=O)C(=C)C)cc2)cc1.[Br-].[Br-] and say whether its MIC is less than 300 µg/mL.
OUT: Y

Now turn to the next compound.
IN: Take the compound C=C(C)C(=O)OCC[N+](CC)(CC)CCCCCCCCCCCC[N+](CC)(CC)CCOC(=O)C(=C)C.[Br-].[Br-] and say whether its MIC is less than 300 µg/mL.
OUT: Y

Value source: patent US20220402872A1
